Target: T1, Type I PTH/PTHrP receptor (PTH1R receptor)
T1 chain: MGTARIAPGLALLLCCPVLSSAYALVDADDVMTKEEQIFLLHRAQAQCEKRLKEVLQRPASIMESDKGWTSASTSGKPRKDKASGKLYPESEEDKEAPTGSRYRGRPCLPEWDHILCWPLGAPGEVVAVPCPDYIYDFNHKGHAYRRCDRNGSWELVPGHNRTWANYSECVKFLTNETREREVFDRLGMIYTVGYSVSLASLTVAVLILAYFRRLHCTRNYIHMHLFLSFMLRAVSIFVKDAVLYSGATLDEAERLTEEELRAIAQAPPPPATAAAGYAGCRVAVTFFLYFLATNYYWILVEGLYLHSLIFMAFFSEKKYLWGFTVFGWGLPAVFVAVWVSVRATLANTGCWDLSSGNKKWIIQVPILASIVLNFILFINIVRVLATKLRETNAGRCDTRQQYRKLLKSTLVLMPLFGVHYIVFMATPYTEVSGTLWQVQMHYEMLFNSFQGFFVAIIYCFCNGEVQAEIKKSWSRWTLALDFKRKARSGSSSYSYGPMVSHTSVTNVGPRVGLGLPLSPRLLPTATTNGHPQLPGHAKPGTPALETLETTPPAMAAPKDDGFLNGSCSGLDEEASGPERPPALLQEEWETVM
Test: kidney-based assay
experimental-endpoint: Ki (nM)
Write the number in nM without appending the unit.

Suppose we examine the binder FXHNLGKHLSSXERVEWLRKKLQDVHNY (Nle (norleucine) at peptide positions 2 and 12 (written X in letters); Lys at peptide position 7 carries epsilon-3-phenylpropanoyl) ; what Ki value has been reported?
73
